# System: delta opioid receptor (Mus musculus, UniProt P32300)
# Construct: NG108-15 cell membranes were purchased from Applied Cell Sciences (Rockville, Md.); host or cells: NG108-15 cell membranes
# Sequence (P32300 whole entry): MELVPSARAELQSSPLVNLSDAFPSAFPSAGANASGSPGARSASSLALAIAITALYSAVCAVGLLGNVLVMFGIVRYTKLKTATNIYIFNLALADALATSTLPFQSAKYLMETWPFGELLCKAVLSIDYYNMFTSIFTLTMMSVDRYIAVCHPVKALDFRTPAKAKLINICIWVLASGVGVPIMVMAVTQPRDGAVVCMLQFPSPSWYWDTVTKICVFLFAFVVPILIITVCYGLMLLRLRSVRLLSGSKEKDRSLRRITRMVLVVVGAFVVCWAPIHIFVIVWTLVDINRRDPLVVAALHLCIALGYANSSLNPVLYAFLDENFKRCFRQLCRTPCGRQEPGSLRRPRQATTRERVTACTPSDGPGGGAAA
# Experimental Details: [35S]GTPγS binding assay in NG108-15 cell membranes (delta opioid functional assay), 200 nM screen
# Type: biochemical
# Condition Summary: relative efficacy from dose response; NG108-15 cell membranes
I'd be grateful if you could share measured GTPγS δ-opioid receptor Rel Efficacy for these entries.
No unit in the answer, please; the number alone is enough.

(Q) Field: GTPγS δ-opioid receptor Rel Efficacy (delta opioid receptor (Mus musculus, UniProt P32300)). Entry: COc1ccc(Oc2nc(-c3ccc(OC)c(F)c3)ncc2NC[C@@H]2CCCN2)cc1
(A) 0.830

(Q) Field: GTPγS δ-opioid receptor Rel Efficacy (delta opioid receptor (Mus musculus, UniProt P32300)). Entry: COc1ccc(Oc2nc(-c3ccncc3)ncc2NC[C@@H]2CCCN2)cc1
(A) 0.912

(Q) Field: GTPγS δ-opioid receptor Rel Efficacy (delta opioid receptor (Mus musculus, UniProt P32300)). Entry: CCc1ccc(Oc2nc(-c3cccnc3)ncc2NC[C@@H]2CCCN2)cc1
(A) 1.271

(Q) Field: GTPγS δ-opioid receptor Rel Efficacy (delta opioid receptor (Mus musculus, UniProt P32300)). Entry: FC(F)(F)COc1ccc(Oc2nc(-c3cncnc3)ncc2NC[C@@H]2CCCN2)cc1
(A) 1.124

(Q) Field: GTPγS δ-opioid receptor Rel Efficacy (delta opioid receptor (Mus musculus, UniProt P32300)). Entry: COc1ccc(Oc2nc(-c3cccnc3)ncc2N2CCCNCC2)cc1
(A) 1.009

(Q) Field: GTPγS δ-opioid receptor Rel Efficacy (delta opioid receptor (Mus musculus, UniProt P32300)). Entry: COc1ccc(Oc2nc(-c3cncc(Cl)c3)ncc2NC[C@@H]2CCCN2)cc1C
(A) 1.150

(Q) Field: GTPγS δ-opioid receptor Rel Efficacy (delta opioid receptor (Mus musculus, UniProt P32300)). Entry: Cc1ccc(Oc2nc(-c3cncc(F)c3)ncc2NC[C@@H]2CCCN2)cc1
(A) 1.239

(Q) Field: GTPγS δ-opioid receptor Rel Efficacy (delta opioid receptor (Mus musculus, UniProt P32300)). Entry: CSc1ccc(Oc2nc(-c3cccnc3)ncc2NC[C@@H]2CCCN2)cc1
(A) 1.083

(Q) Field: GTPγS δ-opioid receptor Rel Efficacy (delta opioid receptor (Mus musculus, UniProt P32300)). Entry: CSc1ccc(Oc2nc(-c3cncc(C#N)c3)ncc2NC[C@@H]2CCCN2)cc1
(A) 1.093
